Measured EC50, listed per entry for reference.
# TARGET_OR_TEST_SYSTEM: T1, PSGL-1 endogenously expressed on HL-60 cells (UniProt Q14242 42-412)
# T1 construct: whole, on cells
# T1 sequence (looked up): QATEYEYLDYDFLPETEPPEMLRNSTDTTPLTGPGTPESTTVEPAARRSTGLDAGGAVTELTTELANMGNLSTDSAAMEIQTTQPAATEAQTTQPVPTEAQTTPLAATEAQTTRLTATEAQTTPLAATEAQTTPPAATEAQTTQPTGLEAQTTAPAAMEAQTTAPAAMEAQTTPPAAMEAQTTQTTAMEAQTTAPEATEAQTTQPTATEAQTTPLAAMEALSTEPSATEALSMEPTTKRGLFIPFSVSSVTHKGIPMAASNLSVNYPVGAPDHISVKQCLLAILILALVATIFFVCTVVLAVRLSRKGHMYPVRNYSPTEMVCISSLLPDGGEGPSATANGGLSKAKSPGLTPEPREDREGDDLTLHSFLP
# EXPERIMENT: flow cytometry on HL-60 cells
Report the value in nM with no unit label.

The cases that follow already have their EC50 on record.
input: Consider the binder shown here: 19L04.004 (antibody, IgG4, V domains shown, Humanised) VH: QIQLVQSGAEVKKPGASVKVSCKASGYTFTTYGMSWVRQAPGQGLKWMGWINTYSGVPTYADDFKGRFTFTLDTSISTAYMELSRLRSDDTAVYFCARHYYGSHYFDYWGQGTLVTVSS VL: DIVMTQSPDSLAVSLGERATIRCKSSQSLLSSSNQKNYLAWYQQKPGQPPKLLVYFASTRESGVPDRFSGSGSGTDFTLTISSLQAEDVAVYYCQQHYFSPLTFGQGTKLEIK What is its recorded EC50?
output: 8.9

input: Next binder: 20I15.007 (antibody, IgG4, V domains shown, Humanised) VH: EVKLVESGGGLVQPGGSLRLSCAASGFTFTDYYMSWVRQAPGKGLEWLGFIRNKANGYTTEYSASVKGRFTISRDNSQNSLYLQMNSLKTEDTAVYYCARTYLRRGYFDVWGQGTLVTVSS VL: DIVLTQSPSTLSASVGDRVTITCRASKSVSTSGYSYMHWFQQKPGKAPKLLIYLASNLESGVPSRFSGSGSGTDFTLTISSLQPDDFATYYCQHSRELPLTFGQGTKLEIK
output: 0.8

input: Next binder: 20I15.003 (antibody, IgG4, V domains shown, Humanised) VH: EVKLVESGGGLVQPGGSLRLSCAASGFTFTDYYMSWVRQAPGKGLEWLGFIRNKANGYTTEYSASVKGRFTISRDNSQNSLYLQMNSLKTEDTAVYYCARTYLRRGYFDVWGQGTLVTVSS VL: DIQLTQSPSTLSASVGDRVTITCRASKSVSTSGYSYMHWFQQKPGKAPKLLIYLASNLESGVPSRFSGSGSGTEFTLTISSLQPDDFATYYCQHSRELPLTFGQGTKLEIK
output: 1.6

input: Next binder: 19L04.008 (antibody, IgG4, V domains shown, Humanised) VH: QIQLVQSGAEVKKPGASVKVSCKASGYTFTTYGMSWVRQAPGQGLKWMGWINTYSGVPTYADDFKGRFTFTLDTSISTAYMELSRLRSDDTAVYFCARHYYGSHYFDYWGQGTLVTVSS VL: DIVMTQSPDSLAVSLGERATLRCKSSQSLLSSSNQKNYLAWYQQKPGQPPKLLVYFASTRESGVPVRFSGSGSGTDFTLTISSLQAEDVAVYFCQQHYFSPLTFGQGTKLEIK
output: 2.9

Let's switch to this binder now.
input: Consider the binder shown here: 20I15.005 (antibody, IgG4, V domains shown, Humanised) VH: EVQLVESGGGLVQPGGSLRLSCAASGFTFTDYYMSWVRQAPGKGLEWLGFIRNKANGYTTEYSASVKGRFTISRDNSKNSLYLQMNSLKTEDTAVYYCARTYLRRGYFDVWGQGTLVTVSS VL: DIVLTQSPSTLSASVGDRVTITCRASKSVSTSGYSYMHWFQQKPGKAPKLLIYLASNLESGVPSRFSGSGSGTDFTLTISSLQPDDFATYYCQHSRELPLTFGQGTKLEIK What is its recorded EC50?
output: 1.3
